inhibition listing for selected molecules.
# measuredTarget: UniProt:O15264
# Sequence (O15264 whole entry, looked up): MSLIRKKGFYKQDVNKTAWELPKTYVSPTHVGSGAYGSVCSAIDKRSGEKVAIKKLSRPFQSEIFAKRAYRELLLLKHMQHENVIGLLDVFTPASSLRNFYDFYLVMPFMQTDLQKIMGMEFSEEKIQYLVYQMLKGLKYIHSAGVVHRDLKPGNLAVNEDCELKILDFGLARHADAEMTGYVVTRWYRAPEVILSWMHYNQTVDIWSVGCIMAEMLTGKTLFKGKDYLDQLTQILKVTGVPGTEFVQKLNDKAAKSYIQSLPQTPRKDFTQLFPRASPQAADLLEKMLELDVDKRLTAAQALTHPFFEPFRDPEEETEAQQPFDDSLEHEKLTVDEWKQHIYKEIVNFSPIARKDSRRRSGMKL
# assayRemarks: radiometric filter-binding kinase assay
# assaySetup: compound 100.0 µM; ATP 5 µM
Give just the numeric value; % need not be written.

These recorded examples may help you get a feel for the data.
{"molecule": "CC(=O)Nc1nc2cnc(-c3ccccc3)cn2n1", "inhibition / %": 1}
{"molecule": "CC(=O)Nc1nc2cnc(-c3c(C)cccc3C)cn2n1", "inhibition / %": 19}
{"molecule": "Nc1nc2cnc(-c3ccccc3)cn2n1", "inhibition / %": 18}

Query (molecule): CC1CN(c2nc3ccccn3c(=O)c2N)CC(C)O1 (configuration not stated) ; field requested: inhibition
0

Which value of inhibition has been reported for O=C(Nc1cnc2[nH]cnn2c1=O)c1ccccc1 in the records?
0

###

# measuredTarget: CaMK1 (human) (UniProt Q14012)
# Sequence (Q14012 whole entry, looked up): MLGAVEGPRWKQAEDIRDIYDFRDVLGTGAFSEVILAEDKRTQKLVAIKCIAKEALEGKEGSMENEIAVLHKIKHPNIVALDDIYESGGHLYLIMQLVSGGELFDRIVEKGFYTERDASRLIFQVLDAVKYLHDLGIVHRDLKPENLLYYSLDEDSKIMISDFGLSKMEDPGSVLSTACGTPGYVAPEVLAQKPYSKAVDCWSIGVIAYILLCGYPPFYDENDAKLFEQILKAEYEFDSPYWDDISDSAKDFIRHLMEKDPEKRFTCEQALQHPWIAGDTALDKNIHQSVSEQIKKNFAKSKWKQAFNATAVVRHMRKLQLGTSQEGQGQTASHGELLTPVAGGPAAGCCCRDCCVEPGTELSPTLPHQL
# assayRemarks: radiometric filter-binding kinase assay
# assaySetup: compound 100.0 µM; ATP 50 µM
parameter: inhibition (%)
The reply should be a number in %, with the unit left off.

{"structure": "CC(=O)Nc1nc2cnc(-c3ccccc3)cn2n1", "measuredTarget": "CaMK1 (human) (UniProt Q14012)", "inhibition, %": 17}
{"structure": "O=c1c(NC(=S)NCc2ccccc2)cnc2[nH]ccn12", "measuredTarget": "CaMK1 (human) (UniProt Q14012)", "inhibition, %": 6}
{"structure": "Cc1cccc(C)c1-c1cn2nc(N)nc2cn1", "measuredTarget": "CaMK1 (human) (UniProt Q14012)", "inhibition, %": 52}
{"structure": "O=C(Nc1cnc2[nH]ccn2c1=O)c1ccccc1", "measuredTarget": "CaMK1 (human) (UniProt Q14012)", "inhibition, %": 11}
{"structure": "CC(=O)Nc1nc2cnc(-c3c(C)cccc3C)cn2n1", "measuredTarget": "CaMK1 (human) (UniProt Q14012)", "inhibition, %": 35}
{"structure": "O=C(c1cccc(-c2cc3c(=O)[nH]cnc3s2)c1)N1CCOCC1", "measuredTarget": "CaMK1 (human) (UniProt Q14012)", "inhibition, %": 75}
{"structure": "Nc1cnc2c(-c3c(F)cccc3F)cccn2c1=O", "measuredTarget": "CaMK1 (human) (UniProt Q14012)", "inhibition, %": 60}

With those in mind, consider the next compound.
Which value of inhibition has been reported for CC(C)(C)Nc1c(C2CC2)nc2[nH]cnn12 in the records?
22

###

Parameter: inhibition. Scope: all listed entries.
# measuredTarget: MAP3K9 (human) (UniProt P80192)
# Sequence (P80192 whole entry, looked up): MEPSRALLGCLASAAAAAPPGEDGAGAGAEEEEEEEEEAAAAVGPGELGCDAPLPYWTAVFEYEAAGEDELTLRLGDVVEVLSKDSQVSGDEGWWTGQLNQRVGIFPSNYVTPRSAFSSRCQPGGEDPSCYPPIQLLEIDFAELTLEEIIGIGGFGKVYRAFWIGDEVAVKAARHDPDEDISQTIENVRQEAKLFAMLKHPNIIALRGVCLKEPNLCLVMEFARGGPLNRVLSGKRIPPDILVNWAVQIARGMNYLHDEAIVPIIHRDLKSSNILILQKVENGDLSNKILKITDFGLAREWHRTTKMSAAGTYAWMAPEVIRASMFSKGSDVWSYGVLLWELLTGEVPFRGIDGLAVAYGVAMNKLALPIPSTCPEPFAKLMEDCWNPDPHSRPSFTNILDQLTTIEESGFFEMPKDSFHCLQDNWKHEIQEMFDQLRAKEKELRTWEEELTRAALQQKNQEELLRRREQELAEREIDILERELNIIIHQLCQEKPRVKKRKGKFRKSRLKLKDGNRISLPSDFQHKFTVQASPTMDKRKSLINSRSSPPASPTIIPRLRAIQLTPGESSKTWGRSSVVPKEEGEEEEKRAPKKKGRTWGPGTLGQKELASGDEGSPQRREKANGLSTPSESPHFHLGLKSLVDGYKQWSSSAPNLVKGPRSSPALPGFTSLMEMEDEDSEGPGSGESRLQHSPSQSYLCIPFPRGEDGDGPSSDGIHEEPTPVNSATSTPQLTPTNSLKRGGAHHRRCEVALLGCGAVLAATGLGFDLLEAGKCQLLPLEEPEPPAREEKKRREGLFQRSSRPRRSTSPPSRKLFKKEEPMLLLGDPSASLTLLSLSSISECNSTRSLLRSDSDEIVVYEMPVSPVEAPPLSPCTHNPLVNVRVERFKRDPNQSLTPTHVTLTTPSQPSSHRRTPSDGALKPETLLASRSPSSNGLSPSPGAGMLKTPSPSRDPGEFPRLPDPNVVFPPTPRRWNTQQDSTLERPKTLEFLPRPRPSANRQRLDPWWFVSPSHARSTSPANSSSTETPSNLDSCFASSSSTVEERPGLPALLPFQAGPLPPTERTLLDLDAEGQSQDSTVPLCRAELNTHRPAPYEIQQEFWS
# assayRemarks: radiometric filter-binding kinase assay
# assaySetup: compound 100.0 µM; ATP 20 µM
# output: bare number, implied unit %

{"molecule": "CC(=O)Nc1nc2cnc(-c3c(C)cccc3C)cn2n1", "measuredTarget": "MAP3K9 (human) (UniProt P80192)", "inhibition (%)": 0}
{"molecule": "COc1ccc(-c2cc3c(=O)[nH]cnc3s2)cc1OC", "measuredTarget": "MAP3K9 (human) (UniProt P80192)", "inhibition (%)": 4}

Fill in: inhibition of O=C(Nc1cnc2[nH]ccn2c1=O)c1ccccc1 is ___
2

I am curious: what inhibition value has been reported for CC(=O)Nc1nc2cnc(-c3ccccc3)cn2n1 ?
43

Query (molecule): CC1CN(c2nc3ccccn3c(=O)c2N)CC(C)O1 (stereo not given) ; field requested: inhibition
0

What value of measured inhibition is listed for CC(C)(C)Nc1c(COCc2ccccc2)nc2[nH]cnn12 ?
14

Data request, read-out inhibition, for Nc1nc2cnc(-c3ccccc3)cn2n1
81

Any idea what inhibition was measured for O=C(Nc1cnc2[nH]cnn2c1=O)c1ccccc1 ?
0

Give its inhibition value. Item: Cc1cccc(C)c1-c1cn2nc(N)nc2cn1
18

Give the measured inhibition of COc1ccc(NC(=S)Nc2cnc3[nH]cnn3c2=O)cn1 .
0

Each recorded value in this set is attributed to the kinase profiling compilation of Christmann-Franck et al. (2016).
